Cited source for all entries: patent US20240092774A1

# TARGET OF ASSAY: Recombinant human CSF1R kinase (Homo sapiens (Human), UniProt P07333)
# Sequence (P07333 20-972): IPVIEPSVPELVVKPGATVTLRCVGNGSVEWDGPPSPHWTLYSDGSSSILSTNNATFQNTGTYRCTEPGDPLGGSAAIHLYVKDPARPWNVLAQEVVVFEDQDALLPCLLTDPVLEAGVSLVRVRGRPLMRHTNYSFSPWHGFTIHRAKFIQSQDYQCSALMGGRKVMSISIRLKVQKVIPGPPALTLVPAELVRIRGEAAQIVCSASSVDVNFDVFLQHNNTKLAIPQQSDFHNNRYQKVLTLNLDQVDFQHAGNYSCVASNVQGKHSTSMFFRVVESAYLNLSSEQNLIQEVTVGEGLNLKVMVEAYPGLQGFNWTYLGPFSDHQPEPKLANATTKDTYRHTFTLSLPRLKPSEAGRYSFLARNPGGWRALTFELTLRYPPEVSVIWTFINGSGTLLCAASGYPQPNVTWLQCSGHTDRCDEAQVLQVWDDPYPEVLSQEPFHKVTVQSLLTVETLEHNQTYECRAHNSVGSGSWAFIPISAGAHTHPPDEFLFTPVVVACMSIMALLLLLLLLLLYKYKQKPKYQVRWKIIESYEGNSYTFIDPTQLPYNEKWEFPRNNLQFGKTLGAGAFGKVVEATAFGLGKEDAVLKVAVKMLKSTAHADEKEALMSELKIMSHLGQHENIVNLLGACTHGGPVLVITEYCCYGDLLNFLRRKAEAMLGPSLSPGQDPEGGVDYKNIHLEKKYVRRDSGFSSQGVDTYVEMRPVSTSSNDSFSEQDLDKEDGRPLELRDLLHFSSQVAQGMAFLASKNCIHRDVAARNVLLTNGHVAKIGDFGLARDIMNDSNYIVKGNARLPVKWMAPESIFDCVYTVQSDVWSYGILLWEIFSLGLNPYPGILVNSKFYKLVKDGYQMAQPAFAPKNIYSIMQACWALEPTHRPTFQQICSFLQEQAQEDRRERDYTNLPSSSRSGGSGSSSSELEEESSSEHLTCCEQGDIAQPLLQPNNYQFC
# EXPERIMENT SUMMARY: Measurement of CSF1R kinase activity at molecular level (Z-LYTE)
# CONDITIONS USED: Z-LYTE Tyr 1 peptide
Note to self: use true only for IC50 readings below 10 nM; a reading exactly at 10 nM still gets false.

QUERY: Hello, is IC50 of the following compound strictly smaller than 10 nM? COc1cc(Oc2ccc3ncc(C)c(=O)n3c2)cnc1OCc1ccc(C(C)(C)C#N)cc1 [Compound 28]
RESULT: false

QUERY: Subsequent entry: COc1cc(Oc2ccc3ncc(C)c(=O)n3c2)cnc1OCc1ccc(C(C)(C)O)cc1 [Compound 27]
RESULT: false

QUERY: Subsequent entry: Cn1cc(-c2cc(Oc3cnc4c(c3)OCC(c3ccc(C5CC5)nc3)O4)ccn2)cn1 (racemic) [Compound 54]
RESULT: true

QUERY: Subsequent entry: COc1ccc([C@H]2COc3cc(Oc4ccc5ncc(C)c(=O)n5c4)cnc3O2)cn1 [Compound 84]
RESULT: true

QUERY: Subsequent entry: COc1ccc([C@@H]2COc3cc(Oc4ccnc(-c5cnn(C)c5)c4)cnc3O2)cc1 [Compound 67]
RESULT: true

QUERY: Subsequent entry: O=c1ccnc2ccc(Oc3cnc4c(c3)OC[C@@H](c3ccc(C5CC5)nc3)O4)cn12 [Compound 59]
RESULT: true

QUERY: Subsequent entry: COc1cc(Oc2ccc3ncc(C)c(=O)n3c2)cnc1OCc1ccc(C2CC2)cc1 [Compound 21]
RESULT: false

QUERY: Subsequent entry: Cc1cnc2ccc(Oc3cnc4c(c3)OC[C@H](c3ccc(C5CC5)nc3)O4)cn2c1=O [Compound 62]
RESULT: true

QUERY: Subsequent entry: COc1ccc(COc2ncc(Cc3ccc4ncc(C)c(=O)n4c3)cc2OC)cc1 [Compound 47]
RESULT: false

QUERY: Subsequent entry: COc1cc(Cc2ccnc(-c3cnn(C)c3)c2)cnc1OCc1ccc(C2CC2)cc1 [Compound 46]
RESULT: false

QUERY: Subsequent entry: COc1ccc(COc2ncc(Oc3ccc4ncc(N)c(=O)n4c3)cc2C)cc1 [Compound 33]
RESULT: false

QUERY: Subsequent entry: COc1cc(Oc2ccc3ncc(C)c(=O)n3c2)cnc1OCc1ccc(C2CC2F)cc1 (stereo not shown) [Compound 13]
RESULT: true

QUERY: Subsequent entry: COc1cc(Oc2ccc3ncc(C)c(=O)n3c2)cnc1OCc1ccc(C2CC2)c(F)c1 [Compound 9]
RESULT: false

QUERY: Subsequent entry: Cn1cc(-c2cc(Oc3cnc4c(c3)O[C@H](c3ccc(C5CC5)cc3)CO4)ccn2)cn1 (single isomer, unassigned) [Compound 50]
RESULT: false

QUERY: Subsequent entry: Cc1cnc2ccc(Oc3cnc4c(c3)OC[C@@H](c3ccc(C5CC5)nc3)O4)cn2c1=O [Compound 61]
RESULT: true
